Every entry's value here was drawn from ChEMBL document CHEMBL1201862.

- System: SF-295
- METHOD: NCI tumour cell line growth inhibition, 48 h
Activity calls are given as the source filed them. Rule as the data show it: active = GI50 up to about 1.1 µM and inactive = higher.
Reply using exactly one outcome from TRUE for active, FALSE for inactive

Prompt line: State the result this test recorded for COC(=O)c1c(C#N)c(N)nc2c1CCC2 .
Response line: FALSE

Prompt line: State the result this test recorded for CCn1c(SCC(=O)NNC(=S)Nc2ccc(Cl)cc2)nc2ccccc2c1=O .
Response line: FALSE

Prompt line: State the result this test recorded for COc1cccc(/C=N/C23CC4CC(CC(C4)C2)C3)c1 .
Response line: FALSE

Prompt line: State the result this test recorded for O=C1CC(C(O)(C(F)(F)F)C(F)(F)Cl)CCC1C(O)(C(F)(F)F)C(F)(F)Cl (stereo not given) .
Response line: FALSE

Prompt line: State the result this test recorded for CCCCCC(/C=C/[C@@H]1[C@H]2CC(=O)O[C@H]2C[C@H]1N1CCOCC1)OC1CCCO1 (stereo not given in full) .
Response line: FALSE

Prompt line: State the result this test recorded for O=C1NCN(c2ccccc2)C12CCN(CCc1ccc3[nH]c(=S)[nH]c3c1)CC2 .
Response line: FALSE
